Biological target: T1, His-tagged CEACAM1 (human, UniProt P13688 35-428)
T1 construct: 45 kDa SPR analyte; also called CEACAM1-HIS; CEACAM1 analyte
T1 sequence: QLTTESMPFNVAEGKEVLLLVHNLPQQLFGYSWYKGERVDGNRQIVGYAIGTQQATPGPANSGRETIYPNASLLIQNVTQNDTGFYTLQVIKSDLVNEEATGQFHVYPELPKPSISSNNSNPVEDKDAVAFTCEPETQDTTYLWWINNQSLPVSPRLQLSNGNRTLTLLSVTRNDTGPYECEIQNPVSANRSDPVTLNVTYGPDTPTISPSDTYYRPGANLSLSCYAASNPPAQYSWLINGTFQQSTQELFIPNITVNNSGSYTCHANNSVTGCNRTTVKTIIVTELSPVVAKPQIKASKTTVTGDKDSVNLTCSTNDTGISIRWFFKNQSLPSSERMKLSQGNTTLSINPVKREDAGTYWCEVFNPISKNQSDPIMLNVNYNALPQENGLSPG
Assay: SPR single-cycle, supernatant IgG captured
# note: boundary value 80000 M⁻¹ s⁻¹ maps to f; kon below it maps to t

Worked examples follow.
BINDER	LABEL_VALUE
8H3_9B3/Vκ8 S29A (antibody, IgG4, V domains shown, IgG4 (S241P), kappa) VH: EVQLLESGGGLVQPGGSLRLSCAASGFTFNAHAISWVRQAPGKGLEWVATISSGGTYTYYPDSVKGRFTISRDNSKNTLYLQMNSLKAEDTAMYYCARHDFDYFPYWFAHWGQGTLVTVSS VL: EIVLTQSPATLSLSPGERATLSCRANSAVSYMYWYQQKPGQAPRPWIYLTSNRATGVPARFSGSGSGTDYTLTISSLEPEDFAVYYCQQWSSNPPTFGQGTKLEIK	f
8H3_9C2 (CDR1)/CP08F05 (antibody, IgG4, V domains shown, IgG4 (S241P), kappa) VH: EVQLLESGGGLVQPGGSLRLSCAASEFTFSDHAMSWVRQAPGKGLEWVATISSGGTYTYYPDSVKGRFTISRDNSKNTLYLQMNSLKAEDTAMYYCARHDFDYFPYWFAHWGQGTLVTVSS VL: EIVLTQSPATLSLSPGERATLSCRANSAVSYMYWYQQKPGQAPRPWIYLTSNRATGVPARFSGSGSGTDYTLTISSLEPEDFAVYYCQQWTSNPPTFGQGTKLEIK	t
9B3_9E5_8H3/CP08F05 (antibody, IgG4, V domains shown, IgG4 (S241P), kappa) VH: EVQLLESGGGLVQPGGSLRLSCAASGFTFNAHAISWVRQAPGKGLEWVATISSGGTYTYYPDSVKGRFTISRDNSKNTLYLQMNSLKAEDTAMYYCARHGFDYFPYWFAHWGQGTLVTVSS VL: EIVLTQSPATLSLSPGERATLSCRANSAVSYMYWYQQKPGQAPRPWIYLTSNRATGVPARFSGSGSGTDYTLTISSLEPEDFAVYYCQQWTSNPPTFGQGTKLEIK	f

Now let's try a different one.
Problem: Consider the binder 8H3_9C2 (CDR1)/CP08E05 (antibody, IgG4, V domains shown, IgG4 (S241P), kappa) VH: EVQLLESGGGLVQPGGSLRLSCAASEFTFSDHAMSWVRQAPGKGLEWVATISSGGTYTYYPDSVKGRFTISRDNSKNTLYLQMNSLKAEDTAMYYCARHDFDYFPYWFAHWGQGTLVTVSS VL: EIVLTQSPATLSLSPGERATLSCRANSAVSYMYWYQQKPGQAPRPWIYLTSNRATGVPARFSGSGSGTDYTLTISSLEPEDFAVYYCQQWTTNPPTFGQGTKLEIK . Is its kon strictly less than 80000 M⁻¹ s⁻¹?
Result: t
